ASSAY SYSTEM: T1, human PD-L1-his tag protein (human, UniProt Q9NZQ7 19-238)
T1 construct: also called human PD-L1-His protein; recombinant PD-L1 protein; not shown: his tag
T1 sequence (Q9NZQ7 19-238 limits assumed): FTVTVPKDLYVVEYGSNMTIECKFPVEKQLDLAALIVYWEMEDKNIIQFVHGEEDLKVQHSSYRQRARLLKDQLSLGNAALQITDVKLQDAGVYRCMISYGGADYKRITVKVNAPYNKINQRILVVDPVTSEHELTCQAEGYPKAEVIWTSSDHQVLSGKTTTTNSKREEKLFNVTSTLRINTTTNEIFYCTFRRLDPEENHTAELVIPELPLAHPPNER
ASSAY INFO: SPR (Biacore T200), mAb captured on Protein A chip, PD-L1-his injected
This section presents binders with their documented koff values.
Quick note: give the figure in s⁻¹, leave out the unit.

Asked: Provide one value: measured koff of Hu89C10H8-11 (antibody, V domains shown, humanized) VH: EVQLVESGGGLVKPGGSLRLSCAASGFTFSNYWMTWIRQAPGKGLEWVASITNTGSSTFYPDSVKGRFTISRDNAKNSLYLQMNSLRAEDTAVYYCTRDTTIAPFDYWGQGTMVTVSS VL: DIQMTQSPSSLSASVGDRVTITCKASQNLNEYLNWYQQKPGKAPKRLIYKTNTLQAGIPSRFSGSGSGIDYTLTISSLQPEDFATYYCSQYNSGNTFGQGTKLEIK
Given back: 5.54e-05

Asked: Provide one value: measured koff of Hu47C6A3-2 (antibody, V domains shown, humanized) VH: QVQLQESGPGLVKPSETLSLTCTVSGYSITSDYAWNWIRQPPGKGLEWIGYIIYSGSTSYNPSLKSRVTISRDTSKNQFSLKLSSVTAADTAVYYCARSTMIATNWFAYWGQGTLVTVSS VL: DIQMTQSPSSLSASVGDRVTITCKASQDVSLAVAWYQQKPGKAPKLLIYWASTRHTGVPSRFSGSGSGTDFTLTISSLQPEDFATYYCQQHYITPWTFGGGTKVEIK
Given back: 0.0009
